Quick list: pIC50 per entry.
Molecular target: human vanilloid-1 (hVR-1) in hVR-1-HEK293 cell line (Homo sapiens)
Sequence (Q8NER1 whole entry): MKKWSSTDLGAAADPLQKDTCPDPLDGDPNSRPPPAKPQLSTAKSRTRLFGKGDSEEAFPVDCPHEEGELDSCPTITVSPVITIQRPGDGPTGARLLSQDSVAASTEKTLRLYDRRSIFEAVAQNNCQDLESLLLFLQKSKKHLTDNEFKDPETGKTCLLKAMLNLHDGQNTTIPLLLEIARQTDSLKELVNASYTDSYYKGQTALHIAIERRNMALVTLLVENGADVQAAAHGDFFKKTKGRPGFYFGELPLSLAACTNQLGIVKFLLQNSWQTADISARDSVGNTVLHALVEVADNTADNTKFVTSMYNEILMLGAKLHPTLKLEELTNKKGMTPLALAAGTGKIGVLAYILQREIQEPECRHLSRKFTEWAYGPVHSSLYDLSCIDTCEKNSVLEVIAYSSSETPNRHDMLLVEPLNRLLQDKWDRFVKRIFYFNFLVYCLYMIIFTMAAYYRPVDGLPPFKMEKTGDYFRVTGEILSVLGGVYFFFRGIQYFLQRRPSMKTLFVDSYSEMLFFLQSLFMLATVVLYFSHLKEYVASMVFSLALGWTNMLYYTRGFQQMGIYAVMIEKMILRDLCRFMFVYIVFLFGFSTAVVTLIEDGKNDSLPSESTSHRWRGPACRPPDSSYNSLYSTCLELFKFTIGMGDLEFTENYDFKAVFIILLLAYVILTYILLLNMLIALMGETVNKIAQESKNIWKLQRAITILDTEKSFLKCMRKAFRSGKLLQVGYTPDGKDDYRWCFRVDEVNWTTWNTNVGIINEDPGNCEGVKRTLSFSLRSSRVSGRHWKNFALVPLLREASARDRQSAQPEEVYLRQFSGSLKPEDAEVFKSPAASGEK
Assay: Inhibitory effect on calcium influx via a vanilloid receptor (capsaicin-stimulated, Fluo-3/AM)
Details: hVR-1-HEK293 cells, 1 μM of capsaicin, compounds 0.015˜2000 nM; read-out: I.A. (inhibitory activity), IC50 on intracellular calcium influx
Protocol: The cell line can modulate the expression of VR-1, depending on whether doxycycline, a derivative of tetracycline, is present or not. […] The obtained data were input to the Hill equation represented by the following formula I and the values were analyzed: Intracellular calcium influx= [(fluorescent intensity of experimental group−fluorescent intensity of background)/(fluorescent intensity of positive control−fluorescent intensity of background)]*100 [Formula I] […]
pIC50: −log10 of the molar value.

INSERT INTO measurements (compound, result) VALUES
  ('COC[C@H]1COc2c(-c3nc4ccc(C)c(C)c4[nH]3)cccc2N1c1ccc(C)cn1 [Example 100]', '7.00 to 7.70'),
  ('COC[C@H]1COc2c(-c3nc4ccc(C(C)(C)C)cc4[nH]3)cccc2N1c1ccc(C)cn1 [Example 88]', '> 7.70'),
  ('CCc1ccc(N2c3cccc(-c4nc5c(F)cc(F)cc5[nH]4)c3OC[C@@H]2CO)nc1 [Example 86]', '> 7.70'),
  ('Cc1ccc(N2c3cccc(-c4nc5ccc(C#N)cc5[nH]4)c3OC[C@@H]2CO)nc1 [Example 56]', '6.30 to 7.00'),
  ('Cc1ccc(N2c3cccc(-c4nc5cc(C)ccc5[nH]4)c3OC[C@@H]2CO)nc1 [Example 51]', '> 7.70');

Annotate the compound CCc1ccc(N2c3cccc(-c4nc5c(F)cc(Br)cc5[nH]4)c3OC[C@@H]2CO)nc1 [Example 85] with its measured pIC50. 7.00 to 7.70

Read off the recorded pIC50 for Cc1ccc(N2c3cccc(-c4nc5c(Br)cc(OC(F)(F)F)cc5[nH]4)c3OC[C@@H]2CO)nc1 [Example 54] > 7.70

Determine its reported pIC50: C=Cc1ccc(N2c3cccc(-c4nc5cc(F)c(Cl)cc5[nH]4)c3OC[C@@H]2CO)nc1 [Example 70] 7.00 to 7.70

Sourced from patent US8362012B2
